Data origin: ChEMBL document CHEMBL3433997

Could you please report measured inhibition for the items listed next?
# study_target: Solute carrier family 2, facilitated glucose transporter member 1 (Homo sapiens)
# assay_method_text: ST_JUDE_LEISH: Cytotoxicity at 2uM final concentration against transgenic Leishmania Mexicana promastigotes LmGLUT1 that are glucose transport deficient and complemented with the human glucose transporter GLUT1. Activity is measured by DNA content using SYBR green in vitro
# Format: functional

# input Can you look up the measured inhibition of CS(=O)(=O)N(CC(O)Cn1c2ccc(Cl)cc2c2cc(Cl)ccc21)c1ccccc1 (stereo not given) for me?
# output 0.79%

# input Quick one: inhibition of `COc1ccccc1N1CCN(CCCCNC(=O)c2ccc(NC(=O)c3cc4ccccc4o3)cc2)CC1` ?
# output 1.4%

# input Returns the measured inhibition for the input molecule. Input: N#Cc1ccc2c(c1)CCN(CCC1CCC(NC(=O)Nc3ccncc3)CC1)C2 (stereo not given)
# output 5.14%

# input Please give the measured inhibition for this molecule: `Cc1[nH]c(C)c(-c2ccc(OCc3cccc(C(F)(F)F)c3)nc2)c(=O)c1Br`
# output 44.5%

# input State the recorded inhibition for this entry: `CCOc1cc(C(=O)NCc2cccc(C(F)(F)F)c2)ccc1-c1nc2cc(Cl)ccc2[nH]1`
# output 2.15%
